# melting point per entry

compound	melting point
O=C(c1ccccc1)N1CCSc2cccc(Cl)c2C1	64 to 72 °C
CC1(C)CC(C)(O)C2C3CCCCC3C2(C)C1 (stereo not drawn)	76.6 to 77.4 °C
CCc1cn(C2CC(OCc3ccccc3)C(CNC(=O)Cc3c(Cl)cccc3Cl)O2)c(=O)[nH]c1=O (stereo not drawn)	174 to 177 °C
OC1(c2ccc(Cl)c(Cl)c2)CCNCC1	144 to 146 °C
Cn1c(=O)cc(C(F)(F)F)[nH]c1=O	235 to 237 °C
c1ccc2c(c1)CNc1ccccc1C2	117 to 122 °C
Oc1ccc(-c2ccc3cc(O)nc-3o2)cc1	> 300 °C
COc1ccc(O)c(CN2CCN(C(=S)SC)CC2)c1	112 °C
c1ccc2nc(N3CCNCC3)c(OCCOc3cncnc3)nc2c1	115 to 117 °C
CCOC(=O)C1=C(C)NC(c2cscn2)=NC1c1ccccc1F (stereo not drawn)	126 to 128 °C
CCN(CC)CCNC(=O)N1CCC(S(=O)c2ccc(Cl)cc2)C1 (stereo not drawn)	128 to 130 °C
N#Cc1c(Sc2ccccc2)cccc1[N+](=O)[O-]	106 to 107 °C
CC1SC(=O)NN=C1c1ccc2c(c1)CC(C)(C)C(=O)N2 (stereo not drawn)	245 °C
Cc1cc2[nH]c(C)nc(NCCN3CCOCC3)c-2n1	237 to 238 °C
CNC(=O)C(=NO)c1ccccc1Oc1ccccc1	183 to 184 °C
C(=Nc1onc2c1CCC2)c1ccccc1	166 °C
COC(=O)c1csc(CCCc2cc3c(=O)[nH]c(N)nc3[nH]2)c1	182 to 183 °C
O=c1c(-c2nc3ccccc3[nH]2)coc2ccccc12	154 °C
O=C1N(CCN2CCC(c3noc4cc(F)ccc34)CC2)CCN1Cc1ccccc1	126 to 130 °C
COc1cc(N)ccc1S(=O)(=O)Nc1ccccc1C	189 to 191 °C
COC1CCC2C3CCC4CC(OC(=O)C(C)C)CCC4(C)C3CCC12C (stereo not drawn)	82 to 87 °C
COc1cc2nc(N)nc(-c3ccccc3Br)c2cc1OC	241 to 243 °C
CC(C)C(=O)n1ccc(-c2ccc(Oc3ccccc3)cc2)n1	49 to 51 °C

====

compound	melting point
Cc1ccccc1-c1c(NC(=O)Nc2c(C(C)C)cccc2C(C)C)oc2ccc(Cl)cc12	240 °C
CC1(C)CSCC(C)(C)c2[nH]c(-c3ccccc3)nc21	223 to 224 °C
FC(F)(F)c1ccc(/C=C/C2=CCN(Cc3c[nH]c4ncccc34)CC2)cc1	203 to 205 °C
CCCCC[C@H]1CC[C@H](CCCCc2ccc(O)cc2)CC1	86 °C
CCCCCCCCCCC1Cc2ccc(C(=O)O)cc2N1 (racemic)	123 to 125 °C
CCOC(=O)NCCc1cccc(-c2ccnc3c(C#N)cnn23)c1	133 to 135 °C
CC(c1ccc(Cl)cc1Cl)C1(c2cccnc2)OC=CC1=O (stereo not given)	111 to 112 °C
CC(=O)NCC1CN(c2ncccc2Cl)C1	109 to 111 °C
COC(=O)CNC(=O)c1cc(C(=O)OC)c(O)c2ncc(Cc3ccc(F)cc3)cc12	209 to 210 °C
Cn1nc(Nc2cc(-c3ccc(F)c(-c4c(C(N)=O)sc5c4C(O)C(C)(C)C5)c3)nn(C)c2=O)cc1CN1CCC1 (stereo not given)	110 to 111 °C
